Data origin, for the record: patent US11332485B2

System: E. coli DH5α/pLBII
assayExplanation: Broth microdilution MIC assay, empty vector control strain
Format: cell-based
conditionSet: Escherichia coli, read-out: E. coli DH5α/pLBII Microbiological Activity (MIC)
assayMetric: MIC

In the examples that follow, each entry is paired with its recorded MIC.
| compound | result |
| --- | --- |
| CC(C)CN1CCN(C(=O)NC(C(=O)N[C@H]2Cc3cccc(C(=O)O)c3OB2O)c2csc(N)n2)C(=O)C1=O (stereo partly shown) | 32 to 64 µg/mL |
| CCN1CCN(C(=O)N[C@@H](C(=O)N[C@@H]2C(=O)N3[C@@H]2SC(C)(C)[C@@H]3C(=O)O)c2ccccc2)C(=O)C1=O [piperacillin, reference compound] | < 1 µg/mL |
| CN(C)S(=O)(=O)NC(C(=O)N[C@H]1Cc2cccc(C(=O)O)c2OB1O)c1csc(N)n1 (stereo partly shown) | 128 to 256 µg/mL |
| CCN1CCN(C(=O)NC(C(=O)N[C@@H]2Cc3cccc(C(=O)O)c3OB2O)c2csc(N)n2)C(=O)C1=O (stereo partly shown) | 128 to 256 µg/mL |
| Nc1nc(C(NC(=O)N2CCN(Cc3ccccc3)C(=O)C2=O)C(=O)N[C@H]2Cc3cccc(C(=O)O)c3OB2O)cs1 (stereo partly shown) | 128 to 256 µg/mL |

Bench note: what MIC did Nc1nc(C(NC(=O)N2CCN(CC3CC3)C(=O)C2=O)C(=O)N[C@H]2Cc3cccc(C(=O)O)c3OB2O)cs1 (stereo partly shown) show?
32 to 64 µg/mL

Bench note: what MIC did CCN1CCN(C(=O)N[C@H](CCO)C(=O)N[C@H]2Cc3cccc(C(=O)O)c3OB2O)C(=O)C1=O show?
32 to 64 µg/mL

====

Test system: E. coli DH5α/pLBII
assayExplanation: Broth microdilution MIC assay, empty vector control strain
Type: cell-based
conditionSet: Escherichia coli, read-out: E. coli DH5α/pLBII Microbiological Activity (MIC)
MIC: recorded values

| compound | MIC |
| --- | --- |
| Nc1nc(C(NC(=O)N2CCN(O)C(=O)C2=O)C(=O)N[C@H]2Cc3cccc(C(=O)O)c3OB2O)cs1 (stereo partly shown) | 128 to 256 µg/mL |

Bench note: what MIC did Nc1nc(C(NC(=O)Cc2ncccn2)C(=O)N[C@H]2Cc3cccc(C(=O)O)c3OB2O)cs1 (stereo partly shown) show?
> 512 µg/mL

Bench note: what MIC did CCN1CCN(C(=O)N[C@@H](C(=O)N[C@H]2Cc3cccc(C(=O)O)c3OB2O)c2ccccc2)C(=O)C1=O show?
32 to 64 µg/mL

Bench note: what MIC did Nc1nc(C(NC(=O)C2CCCC(=O)N2)C(=O)N[C@H]2Cc3cccc(C(=O)O)c3OB2O)cs1 (stereo partly shown) show?
128 to 256 µg/mL

Bench note: what MIC did CCN1CCN(C(=O)N[C@@H](C(=O)N[C@H]2Cc3cccc(C(=O)O)c3OB2O)[C@@H](C)O)C(=O)C1=O show?
8 to 16 µg/mL

Bench note: what MIC did CCN1CCN(C(=O)N[C@@H](CO)C(=O)N[C@H]2Cc3cccc(C(=O)O)c3OB2O)C(=O)C1=O show?
> 512 µg/mL

Bench note: what MIC did Nc1nc(C(NC(=O)N2CCN(CCF)C(=O)C2=O)C(=O)N[C@H]2Cc3cccc(C(=O)O)c3OB2O)cs1 (stereo partly shown) show?
8 to 16 µg/mL
